Target: BRD4 (BDI_K57-E168) (Homo sapiens, UniProt O60885)
Construct: BD1: amino acids K57-E168
Experiment: TR-FRET bromodomain binding assay, BRD4 first bromodomain
Conditions: His-tagged BD1, 100 nM Alexa647 probe; assay protocol D or F as given per row in c1; Ki calculated from IC50
Documented pKi across a set of compounds
Conceptually, pKi converts a concentration in mol/L into minus its log10.

# compound, quantity-kind, measured-result
data = [
    ("Cn1cncc1CNc1ccc2c(c1)-c1cn(C)c3c(=O)[nH]cc(c13)CN2c1ccc(F)cc1", "pKi", 8.68),
]

Next up:
query: Observed pKi on BRD4 (BDI_K57-E168) (Homo sapiens, UniProt O60885) for Cn1cc2c3c(c[nH]c(=O)c31)CN(c1ccc(F)cc1)c1ccc(NC(=O)Nc3cccc(Oc4ccccc4)c3)cc1-2 , please.
result: 7.27

###

Molecular target: BRD4 (BDII_E352-M457) (Homo sapiens, UniProt O60885)
Construct: protocol
Assay: TR-FRET bromodomain binding assay, BRD4 second bromodomain
Documented pKi across a set of molecules
Conceptually, pKi converts a concentration in mol/L into minus its log10.

Use the examples below as a reference point.
# molecule, pKi
measured = [
    ("CCOC(=O)C1c2c[nH]c(=O)c3c2c(cn3C)-c2cc(CS(C)(=O)=O)ccc2N1c1ccc(F)cc1 (stereo not drawn)", 7.57),
    ("Cn1cc2c3c(c[nH]c(=O)c31)CN(c1ccc(F)cc1)c1ccc(NC(=O)Cc3cc(Cl)ccc3Oc3ccccc3)cc1-2", 6.62),
    ("Cn1cc(CC(=O)Nc2cnc3c(c2)-c2cn(C)c4c(=O)[nH]cc(c24)CN3c2ccc(F)cc2)cn1", 8.52),
    ("Cc1cc(CC(=O)Nc2cnc3c(c2)-c2cn(C)c4c(=O)[nH]cc(c24)CN3c2ccc(F)cc2)nn1C", 8.46),
    ("Cn1cc2c3c(c[nH]c(=O)c31)CN(C(=O)C1CC1)c1ccc(CS(C)(=O)=O)cc1-2", 8.61),
    ("Cn1cc2c3c(c[nH]c(=O)c31)CN(c1ccc(F)cc1)c1ncc(N)cc1-2", 8.43),
    ("CN1CCN(CCC(=O)Nc2ccc3c(c2)-c2cn(C)c4c(=O)[nH]cc(c24)CN3c2ccc(F)cc2)CC1", 7.88),
    ("Cc1cnc(C(=O)Nc2ccc3c(c2)-c2cn(C)c4c(=O)[nH]cc(c24)CN3c2ccc(F)cc2)cn1", 7.72),
    ("CCS(=O)(=O)Nc1ccc2c(c1)-c1cn(C)c3c(=O)[nH]cc(c13)CN2c1ccc(F)cc1", 8.37),
    ("CCS(=O)(=O)Nc1cnc2c(c1)-c1cn(C)c3c(=O)[nH]cc(c13)CN2c1ccc(Cl)cc1", 9.15),
]

query: Value lookup for pKi; key = Cc1cc(CC(=O)Nc2ccc3c(c2)-c2cn(C)c4c(=O)[nH]cc(c24)CN3c2ccc(F)cc2)nn1C
result: 8.19

query: Value lookup for pKi; key = Cn1cc2c3c(c[nH]c(=O)c31)CN(c1ccc(F)cc1)c1ccc(C(=O)NCc3ccccc3)cc1-2
result: 7.66

query: Value lookup for pKi; key = Cn1cc2c3c(c[nH]c(=O)c31)CN(c1ccc(F)cc1F)c1c-2cc(CS(C)(=O)=O)cc1C1CC1
result: 9.07

query: Value lookup for pKi; key = Cn1cc2c3c(c[nH]c(=O)c31)CN(c1ccc(F)cc1)c1ccc(NC(=O)Cc3ccc4c(c3)CCCO4)cc1-2
result: 7.71

###

Target: BRD4 (BDI_K57-E168) (Homo sapiens, UniProt O60885)
Construct: BD1: amino acids K57-E168
Test: TR-FRET bromodomain binding assay, BRD4 first bromodomain
Conditions: His-tagged BD1, 100 nM Alexa647 probe; assay protocol D or F as given per row in c1; Ki calculated from IC50
quantity-kind: log10 Ki (log10 of the value in nM)
Could you please treat all values as log10 of Ki in nM?

query: Value lookup for log10 Ki; key = Cn1cc2c3c(c[nH]c(=O)c31)CN(c1ccc(F)cc1)c1ncc(NC(=O)Cn3ccc(-c4ccccc4F)n3)cc1-2 [Example 19]
result: 0.12

query: Value lookup for log10 Ki; key = Cn1cc2c3c(c[nH]c(=O)c31)CNc1ccc(S(C)(=O)=O)cc1-2 [Example 1]
result: 3.13

query: Value lookup for log10 Ki; key = Cc1cnc(C(=O)Nc2ccc3c(c2)-c2cn(C)c4c(=O)[nH]cc(c24)CN3c2ccc(F)cc2)cn1 [Example 35]
result: 0.30

query: Value lookup for log10 Ki; key = Cn1cc2c3c(c[nH]c(=O)c31)CN(c1ccc(F)cc1)c1ccc(NC(=O)Cc3cc(F)ccc3[N+](=O)[O-])cc1-2 [Example 66]
result: 0.33

query: Value lookup for log10 Ki; key = Cn1cc2c3c(c[nH]c(=O)c31)CN(C(=O)c1ccccc1)c1ccc(CS(C)(=O)=O)cc1-2 [Example 7]
result: 1.77

###

Target: BRD4 (BDII_E352-M457) (Homo sapiens)
Construct: protocol
Assay: TR-FRET bromodomain binding assay, BRD4 second bromodomain
quantity-kind: Ki (nM)
Field: numeric (nM). Do not append units.

# molecule, quantity-kind, measured-result
records = [
    ("CCS(=O)(=O)Nc1ccc2c(c1)-c1cn(C)c3c(=O)[nH]cc(c13)CN2c1ccccn1", "Ki", 1.47),
]

query: Value lookup for Ki; key = CC(NC(=O)c1ccc2c(c1)-c1cn(C)c3c(=O)[nH]cc(c13)CN2c1ccc(F)cc1)c1ccc(F)cc1 (stereo not shown)
result: 71.5

query: Value lookup for Ki; key = COC(=O)CCC1c2c[nH]c(=O)c3c2c(cn3C)-c2cc(CS(C)(=O)=O)ccc2N1c1ccc(F)cc1 (stereo not shown)
result: 18.2

###

Biological target: BRD4 (BDI_K57-E168) (Homo sapiens, UniProt O60885)
Construct: BD1: amino acids K57-E168
Experiment: TR-FRET bromodomain binding assay, BRD4 first bromodomain
Conditions: His-tagged BD1, 100 nM Alexa647 probe; assay protocol D or F as given per row in c1; Ki calculated from IC50
# note: exactly 5 nM is not below, so it is false (0); use true (1) for Ki strictly under it

# compound, assigned-category
rows = [
    ("Cn1cc2c3c(c[nH]c(=O)c31)CN(c1ccc(F)cc1)c1ccc(NC(=O)Cc3ccc4c(c3)CCCO4)cc1-2", "true (1)"),
]

query: Given the entry CC(=O)N1CCC(N2Cc3c[nH]c(=O)c4c3c(cn4C)-c3cc(NC(=O)Cc4cc(F)ccc4Cl)ccc32)CC1 , would its reported Ki be below 5 nM?
result: true (1)

query: Given the entry CC(=O)Nc1ccc(S(=O)(=O)Nc2ccc3c(c2)-c2cn(C)c4c(=O)[nH]cc(c24)CN3c2ccc(F)cc2)cc1 , would its reported Ki be below 5 nM?
result: true (1)

###

Biological target: BRD4 (BDI_K57-E168) (Homo sapiens)
Construct: BD1: amino acids K57-E168
Experiment: TR-FRET bromodomain binding assay, BRD4 first bromodomain
Details: His-tagged BD1, 100 nM Alexa647 probe; assay protocol D or F as given per row in c1; Ki calculated from IC50
quantity-kind: Ki (nM)
Field: numeric (nM). Do not append units.

# molecule, unit-label, Ki
measured = [
    ("Cn1cc2c3c(c[nH]c(=O)c31)CN(c1ccc(F)cc1F)c1c-2cc(CS(C)(=O)=O)cc1C1CC1", "nM", 1.29),
]

Next up:
query: Value lookup for Ki; key = COC(=O)CCC1c2c[nH]c(=O)c3c2c(cn3C)-c2cc(CS(C)(=O)=O)ccc2N1c1ccc(F)cc1 (stereo not shown)
result: 6.29

###

Target: BRD4 (BDI_K57-E168) (Homo sapiens, UniProt O60885)
Construct: BD1: amino acids K57-E168
Assay: TR-FRET bromodomain binding assay, BRD4 first bromodomain
Conditions: His-tagged BD1, 100 nM Alexa647 probe; assay protocol D or F as given per row in c1; Ki calculated from IC50
# note: exactly 5 nM is not below, so it is 0.0; use 1.0 for Ki strictly under it

# compound, assigned-category
measured = [
    ("Cn1cc2c3c(c[nH]c(=O)c31)CN(c1ccc(F)cc1)c1ncc(NC(=O)Cc3ccc(Cl)cc3F)cc1-2 [Example 20]", 1.0),
    ("Cn1cc2c3c(c[nH]c(=O)c31)CN(c1ccc(F)cc1)c1ccc(C(=O)NCc3cc(F)ccc3Cl)cc1-2 [Example 60]", 1.0),
    ("Cn1cc2c3c(c[nH]c(=O)c31)CN(c1ccc(F)cc1)c1ccc(NC(=O)Cc3cc(F)ccc3Br)cc1-2 [Example 49]", 1.0),
    ("Cc1ccc(C)c(CC(=O)Nc2ccc3c(c2)-c2cn(C)c4c(=O)[nH]cc(c24)CN3c2ccc(F)cc2)c1 [Example 53]", 1.0),
    ("CC(NC(=O)c1ccc2c(c1)-c1cn(C)c3c(=O)[nH]cc(c13)CN2c1ccc(F)cc1)c1ccc(Cl)cc1Cl (centres unmarked) [Example 61]", 0.0),
]

query: Given the entry Cn1cc2c3c(c[nH]c(=O)c31)C(CC1CCOCC1)N(c1ccc(F)cc1)c1ccc(CS(C)(=O)=O)cc1-2 (centres unmarked) [Example 10] , would its reported Ki be below 5 nM?
result: 0.0

query: Given the entry CC(=O)Nc1ccc2c(c1)-c1cn(C)c3c(=O)[nH]cc(c13)CN2C1CCN(C(C)=O)CC1 [Example 77] , would its reported Ki be below 5 nM?
result: 1.0
